Hey, just so you know, these numbers are from patent US20070111199A1.

Molecular target: Ba/F3 cells overexpressing the p210^Bcr-Abl-T315I theramutein (Homo sapiens, UniProt P00519, T315I, cells depend on it)
Construct: fused on or other part: P11274 (Breakpoint cluster region protein)
Assay: phenoresponse-based cellular assay (cell count/viability), Ba/F3 T315I test cells
Parameters: species or system murine
Conditions: read-out: T315I (IC50 activity category, growth inhibition by 50%); Ba/F3 T315I cell line

[
  {
    "COMPOUND_STRING": "Oc1ccccc1/C=N/Nc1ncc(F)c(N2CCOCC2)n1",
    "GI50": "< 10 µM"
  },
  {
    "COMPOUND_STRING": "CN(C)c1cc(O)cc(Nc2ccc(/C=N/Nc3ncc(F)c(N4CCOCC4)n3)nc2)c1",
    "GI50": "< 1 µM"
  },
  {
    "COMPOUND_STRING": "Cc1cc(Nc2ccc(/C=N/Nc3ncc(F)c(N4CCOCC4)n3)nc2)cc(N2CCNCC2)c1",
    "GI50": "< 1 µM"
  },
  {
    "COMPOUND_STRING": "Fc1cnc(N/N=C/c2ccc(Nc3ccc(-c4ccccn4)c(Cl)c3)cn2)nc1N1CCOCC1",
    "GI50": "< 1 µM"
  },
  {
    "COMPOUND_STRING": "O=C(Nc1cccc(C(F)(F)F)c1)c1cc(Cl)c(O)c(/C=N\\Nc2ncc(F)c(N3CCOCC3)n2)c1",
    "GI50": "< 1 µM"
  },
  {
    "COMPOUND_STRING": "Cc1ccccc1/C=N/Nc1ncc(F)c(N2CCOCC2)n1",
    "GI50": "> 10 µM"
  },
  {
    "COMPOUND_STRING": "Fc1cnc(N/N=C/c2ccc(Nc3cccc(-n4ccnc4)c3)cn2)nc1N1CCOCC1",
    "GI50": "< 1 µM"
  },
  {
    "COMPOUND_STRING": "Oc1cccc(Nc2cccc(Nc3ccc(/C=N/Nc4ncc(F)c(N5CCOCC5)n4)nc3)c2)c1",
    "GI50": "< 1 µM"
  },
  {
    "COMPOUND_STRING": "Fc1cnc(N/N=C/c2ccc(Nc3ccc(N4CCOCC4)cc3)cn2)nc1N1CCOCC1",
    "GI50": "< 1 µM"
  },
  {
    "COMPOUND_STRING": "Oc1ccc(Br)cc1/C=N/Nc1ncc(F)c(N2CCOCC2)n1",
    "GI50": "< 1 µM"
  }
]
